# Procedure Text: chemical genetic growth profiling, strain panel (AID 1159580);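 note: tested at 20 µM; growth read once vehicle control cultures reached saturation at 30 °C; 1 = growth at the plate median or of vehicle wells; lower values mean less growth of the strain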
# Assay Conditions: S. cerevisiae deletion strains, growth OD, locus YNL307C, strain MCK1 (second series)
The whole screen tested about 5,500 compounds, of which about 2,000 (36%) were called active. Another 18% or so got no clear call; they are omitted. Cut-off read from the data, not from the text of the source: active = normalized growth mostly below about 0.91 (no sharp cut-off); inconclusive = no clear call, values can overlap the other calls; inactive = mostly above about 0.92. Some of the results follow.
Hi there, use one of these labels in your reply, thanks! 1 = active, 0 = inactive

Solved entries (count: 8):
compound=O=C1Nc2ccccc2/C1=N/N=C\c1cc(Br)cc(Br)c1O class_label=1
compound=O=C1c2ccccc2O[C@@H](c2ccccc2)[C@@H]1NCc1ccccc1 class_label=0
compound=O=C1Nc2ccccc2/C1=N/N=C\c1ccccc1Cl class_label=0
compound=N#Cc1c(Br)cnn1Cc1cc(C(F)(F)F)cc(C(F)(F)F)c1 class_label=0
compound=CN(C(=O)N(C)c1ccc(Cl)cc1C(=O)c1ccccc1Cl)c1ccc(Cl)cc1C(=O)c1ccccc1Cl class_label=1
compound=CCCc1cnc(N2CCN(CC(=O)N(c3ccccc3)C3CCCCC3)CC2)nc1 class_label=0
compound=Clc1ccccc1N/N=C\Cc1nnnn1-c1ccccc1 class_label=0
compound=C#Cc1cccc(N=Cc2cc(Cl)cc(Br)c2O)c1 class_label=1

Req: For this compound, state the assay outcome: Cc1ccc2c(c1)CCCN2CC(=O)N(c1ccccc1)C1CCCCC1
Resp: 0

Req: For this compound, state the assay outcome: CC(O)(CNCc1ccc(Cl)cc1)CSc1ccccc1Cl (stereo not drawn)
Resp: 0

Req: For this compound, state the assay outcome: C/C(=N/Nc1nc(C(C)(C)C)cs1)c1ccc(Cl)c(Cl)c1
Resp: 0

Req: For this compound, state the assay outcome: CC(C)(C)c1csc(NNC(=O)c2ccc(Cl)cc2)n1
Resp: 0

Req: For this compound, state the assay outcome: Cc1cc(C(=O)O/N=C(/N)CSc2ncccc2C(F)(F)F)no1
Resp: 0

Req: For this compound, state the assay outcome: CCn1nc(C)cc1-c1nnc(Sc2ncc([N+](=O)[O-])s2)n1C
Resp: 0

Req: For this compound, state the assay outcome: Cc1cc(C(=O)N(c2ccccc2)C(C)C2CC2)c(Cl)cc1Cl (stereo not drawn)
Resp: 0

Req: For this compound, state the assay outcome: Cc1ccc(C(=O)O/N=C(/N)CSc2ncccc2C(F)(F)F)cc1
Resp: 0

Req: For this compound, state the assay outcome: CC(C)CSc1nnc(CSCc2nc(-c3ccc(Cl)cc3)cs2)n1C
Resp: 0

Req: For this compound, state the assay outcome: O=C(NCc1cccs1)c1csc(Cc2c(Cl)cccc2Cl)n1
Resp: 0

Req: For this compound, state the assay outcome: N/C(CSc1ccc(Cl)cc1)=N/OC(=O)c1ccc(C(F)(F)F)cc1
Resp: 0
